// provenance: ChEMBL document CHEMBL4513216

# Test system: Plasmodium berghei
# assay.protocol: Screen against P. berghei liver stage (PbLuc), transformed with Luciferase, at 10uM
# Format: functional, HepG2
# condition: tested at 10 uM
In all, about 69,000 compounds went through this assay and about 8,600 (12%) showed an effect of 50% or more. The list comes from a sample in which strong results are over-represented; it also holds close analogues and randomly drawn compounds.
recorded.endpoint: INHIBITION (%)
Output spec: scalar in %, unitless text.

O=C(CCN1C[C@H]2CC[C@@H]1C2)N1CCN(c2cccc(Cl)c2)C(=O)C1
-6.94
Cc1ccc(CNC(=O)NCc2cccnc2N(C)C)s1
15.5
O=C(c1cnccn1)N1C[C@H]2CC[C@@H](C1)N(C(=O)CCc1ccsc1)C2
-69.6
Cn1ncc2c(N3CCCN4CCC[C@H]4C3)nc(C(C)(C)C)nc21
31.6
c1cnnc(N[C@@H]2CC[C@@H]3CN(Cc4c[nH]c5ccccc45)C[C@@H]32)c1
31.6

Look up and report measured INHIBITION for this entry: COc1ccc(CNC(=O)NCc2nc(C)c(C)s2)cn1
48.5

Determine from records and report INHIBITION for COCc1nc(N2CCC(CCO)CC2)c2cnn(C)c2n1
14.3

State its INHIBITION: Cc1nc(N2CCCC(N3CCCC3)C2)c2cnn(C)c2n1 (stereo unspecified)
55.1

Give the reported value of INHIBITION for this record: N#Cc1cn(C2CC2)c(=O)n(CC(O)c2ccccc2C(F)(F)F)c1=O (stereo unspecified)
29.4

Answer with the recorded INHIBITION for the compound listed here: CCN1CCc2[nH]nc(C(=O)N3CCCC3C)c2C1 (stereo unspecified)
-65.2

Identify INHIBITION associated with the compound COCCNc1ccccc1CNC(=O)NCc1nc(C)c(C)s1
72

###

# System: Plasmodium berghei
# assay.protocol: Screen against P. berghei liver stage (PbLuc), transformed with Luciferase, at 10uM
# Assay type: functional, HepG2
# condition: tested at 10 uM
The whole screen tested about 69,000 compounds, of which about 8,600 (12%) showed an effect of 50% or more. The list comes from a sample in which strong results are over-represented; it also holds close analogues and randomly drawn compounds.
Recorded INHIBITION values for a group of compounds are listed next.
Your answer is read as %, so omit the unit and give the number.

CN1C[C@H](O)[C@]2(CCN(Cc3ccc(F)c(F)c3)C2)S1(=O)=O
54
CCN1CCC(CC(=O)NCCc2nc(O)cc(O)n2)CC1
-16.3
COc1ccc(S(=O)(=O)NCC(N)c2ccccc2)c(C)c1 (stereo unspecified)
24.8
CN1C[C@H](O)[C@]2(CCN(Cc3ccc(OC(F)(F)F)cc3)C2)S1(=O)=O
26
CSCCCN1CCCC1c1noc(C(C)C)n1 (stereo unspecified)
1.18

Please examine the following record next.
Give measured INHIBITION for COc1ccc(CN2CC[C@@]3(C2)[C@H](O)CN(C)S3(=O)=O)cc1F (Plasmodium berghei).
20.7

###

# Test system: Plasmodium berghei
# assay.protocol: Screen against P. berghei liver stage (PbLuc), transformed with Luciferase, at 10uM
# Type: functional, HepG2
# condition: tested at 10 uM
Among all 69,000 compounds or so, about 8,600 (12%) showed an effect of 50% or more. What follows is part of a selection rich in strong results, with near analogues and random picks from the rest.
recorded.endpoint: INHIBITION (%)
// return numeric value only (unit: %, not printed)

Specify reported INHIBITION for the compound shown: Cc1nc2c(c(C)c1CC(=O)Nc1ccccc1F)c(=O)[nH]n2C
60.9

Dear colleague, please send me the reported INHIBITION for Cc1nc2c(c(C)c1CC(=O)NCc1ccccc1F)c(=O)[nH]n2C when you can.
39.2

Please give the documented INHIBITION of Cc1cc(N2CCC(NC(C)Cc3ccsc3)CC2)nc(C)n1 (configuration not stated)
27.9

Recall and state the measured INHIBITION for CN(C)CCn1c([C@@H]2CCCO2)cc2cccnc21 .
26.8

###

# System: Plasmodium berghei
# assay.protocol: Screen against P. berghei liver stage (PbLuc), transformed with Luciferase, at 10uM
# Format: functional, HepG2
# condition: tested at 10 uM
In all, about 69,000 compounds went through this assay and about 8,600 (12%) showed an effect of 50% or more. The full list was thinned out, with strong results kept by preference.
recorded.endpoint: INHIBITION (%)
Just the number please, in %, no unit attached.

Guide cases for INHIBITION, answers given:
COCC(C)NC(=O)CSc1ccc(F)c(Cl)c1 (stereo not given)
46.1
CCc1nc(NS(=O)(=O)c2ccc(F)cc2C)no1
-3.16
COCCCSc1ccc(NCc2cscn2)cc1
26.9
COc1cc2nc(NCc3scnc3C)nc(N)c2cc1OC
45

Return value of INHIBITION for input COCCn1ccc(NCc2scnc2C)n1 , no commentary.
17.7

Name the recorded INHIBITION of the compound listed here: CCCNC(c1cccnc1)c1ccc(F)cc1F (stereo not given)
12.9

Provide measured INHIBITION value, entry: Cc1ccc(NCc2ccccc2C#N)cc1-n1cnnn1
10.6

Annotate the compound CC(C)(C)c1nc(NS(=O)(=O)c2ccc(F)cc2)no1 with its measured INHIBITION.
51.6

###

# Tested on: Plasmodium berghei
# assay.protocol: Screen against P. berghei liver stage (PbLuc), transformed with Luciferase, at 10uM
# Type: functional, HepG2
# condition: tested at 10 uM
Out of some 69,000 compounds screened, about 8,600 (12%) showed an effect of 50% or more. What follows is part of a selection rich in strong results, with near analogues and random picks from the rest.
recorded.endpoint: INHIBITION (%)
Use % as the unit, but write only the number.

Example entries begin here.
O=S(=O)(Nc1c(F)cccc1N1CCCC1)c1cncc(F)c1
27.6
O=C(O)c1c(-c2ccncc2)ncc2c1CCN(CC1CCOC1)C2 (configuration not stated)
34.9
CN(C)c1cccc(C(=O)N2CCCSCC2CN2CCCC2)c1 (configuration not stated)
11
CC(NC(=O)N1CCN(c2ccccc2O)CC1)c1nncn1C (configuration not stated)
-1.14
NC(=O)c1cc(CC2CCCN(c3cnccn3)C2)ncn1 (configuration not stated)
-32.7
CCn1nc(C)c2nc(C(C)C)nc(N3CCN(C)CC3)c21
-10.1

Quickly give me recorded INHIBITION for CS(=O)(=O)N1CCN(c2cc(-n3cccc3)ncn2)CC1
38.3

###

# System: Plasmodium berghei
# assay.protocol: Screen against P. berghei liver stage (PbLuc), transformed with Luciferase, at 10uM
# Assay type: functional, HepG2
# condition: tested at 10 uM
About 8,600 (12%) of roughly 69,000 compounds showed an effect of 50% or more. For the sample, strong results were picked, then their nearest neighbours and some compounds at random.
Documented INHIBITION across a set of molecules
Express the result in % but write the number alone.

Study these solved cases before continuing.
CC(=O)N(Cc1ncc(C(C)C)o1)C1CCN(Cc2ccno2)C1 (stereo unspecified)
0.1995
Cc1cccc(C2(CNC(=O)c3ccnc(N(C)C)c3)CCOCC2)c1
13.5

Find the measured INHIBITION of Cc1nc(C2CCCN(C(=O)CCCn3cccn3)C2)no1 (stereo unspecified) and report it.
53.5

Give a short answer stating reported INHIBITION for CS(=O)(=O)c1cccc(C(N)c2ccccc2)c1 (stereo unspecified) .
-19.4

Supply recorded INHIBITION for COc1ccccc1C(O)CNc1nccc(-c2ccc(C)nc2C)n1 (stereo unspecified) here.
0.868

Note INHIBITION for the molecule shown: CC(C)c1nc(C2CCCN(C(=O)CCCn3cccn3)C2)no1 (stereo unspecified)
-29.8

Given the molecule CC(C)c1nc(C2CCCN(C(=O)CCn3ccnc3)C2)no1 (stereo unspecified) , write its reported INHIBITION.
56.1

State its INHIBITION for this molecule: CCn1c(C)nnc1SCCNC(=O)c1sc(C(C)C)nc1C
-12.1

Kindly indicate its recorded INHIBITION. Item: Cc1ccc(C(=O)N2CCN3C[C@H](Oc4cccc(F)c4)C[C@H]3C2)cn1
0.804

Dear colleague, please send me the reported INHIBITION for Cc1ccccc1CN(CCN(C)C)Cc1ccccc1C(=O)O when you can.
2.18

Tell me INHIBITION reported for CCCc1noc(CCC(=O)N2CCCC(c3ccn[nH]3)C2)n1 (stereo unspecified)
16.8

###

# System: Plasmodium berghei
# assay.protocol: Screen against P. berghei liver stage (PbLuc), transformed with Luciferase, at 10uM
# Format: functional, HepG2
# condition: tested at 10 uM
Screen size: about 69,000 compounds; about 8,600 (12%) showed an effect of 50% or more. The entries come from a sample that favours strong results as a whole.
# INHIBITION per entry
Return type: number; implicit unit %.

A selection of reference data follows.
Cc1nc(O)c2nnn(C[C@H]3CCCN3C(=O)c3cccs3)c2n1
31.6
O=C(Cn1nc(-c2ccc(F)cc2)oc1=O)NCC1CCCO1 (centres undefined)
-36.1
CN1CCOC(CNCc2ccc(OCc3ccccn3)cc2)C1 (centres undefined)
-38.7
O=C1CCC2(CCC(NC3CCOC3)CC2)N1Cc1ccncc1 (centres undefined)
3.81
O=c1oc(-c2ccc(F)cc2)nn1CC1CCOC1 (centres undefined)
62.3

Read the entry Cn1c(=O)[nH]c(=O)c2c1nc1n2CC(c2ccc(Cl)cc2)O1 (centres undefined) and write its reported INHIBITION.
7.92

Note down INHIBITION recorded for CC(=O)Cc1c(C)nn(-c2cncc(C(N)=O)c2)c1C
-27.5

Output INHIBITION of Cc1ccc(CN2CCc3onc(C(=O)Nc4cccnc4)c3C2)o1
-12.2

Return reported INHIBITION. Input compound: O=c1oc(-c2ccc(F)cc2)nn1CN1CCN(CC2CC2)CC1
30.6

Check the records and state INHIBITION for CN1CC2(CCC(C(=O)O)CC2)Oc2ccccc2C1=O (centres undefined)
-4.35

Give the reported value of INHIBITION for this record: COc1ccc(N2CCN(C(=O)C(C)n3cc(Br)cn3)CC2)cc1 (centres undefined)
30

Return INHIBITION (reported value) for this compound: COCC(=O)Nc1cc(S(=O)(=O)C(F)(F)F)ccc1OC
33.7

Read the entry O=c1oc(-c2ccc(F)cc2)nn1CC1CCCCO1 (centres undefined) and write its reported INHIBITION.
59.3

Name the recorded INHIBITION of the compound listed here: Cc1cccc(Nc2cc(C)nc(C3CCCCN3CC(N)=O)n2)n1 (centres undefined)
18.9

Read the entry Cc1ncsc1C(=O)NCCN1CCCCCC1=O and write its reported INHIBITION.
25.4
